Test system: PI(4,5)P2 liposomes
assay: Yeast proteome chip probed with PI(4,5)P2 liposomes
setup conditions: liposome binding signal on yeast proteome chip, Cy3-streptavidin detection
endpoint name: PI(4, 5)P2
Output spec: single numeric token, no unit.

I'd like to know its PI(4, 5)P2. The molecule in question is OPY1: yeast GST-HisX6 fusion protein on proteome chip (protein, UniProt P38271 1-328, looked up, GST-His6 fusion tag, yeast GST-HisX6 fusion protein on proteome chip) Pleckstrin homology domain …: MIAGATAPSSQHEILIASNLIKKPSTSQNKTPTAQSSSGNNGAADGAPQGYHHHHHHHRHLWWPRTTDHQYWCVLRKNQFAYYKTRDEREAISVIPRFDILNFKISELDGILTVYTPSKDLIFKFPRGQNEKVGMELMHNWKIALEKFLSSPSGNESVTTGSDYDEEEDDDDLIVVDEKAGPSSSKHSCSLTMDEQLSREDKEFYRMFDPRNAEHQVCSGILYTKVKKKKLFNRAKWQKFNVELTNTSFNLYSFKTGKLKKSIKLDKIIDCIELDNNSKMKNDDTNFALITFDERLSFKAANDQDMVDWIINFKSGILIRKKLKAENI
37.89

I'd like to know its PI(4, 5)P2. The molecule in question is MET8: yeast GST-HisX6 fusion protein on proteome chip (protein, left off: a dimerising Fc or GST, yeast GST-HisX6 fusion protein on proteome chip) MVKSLQLAHQLKDKKILLIGGGEVGLTRLYKLIPTGCKLTLVSPDLHKSIIPKFGKFIQNEDQPDYREDAKRFINPNWDPTKNEIYEYIRSDFKDEYLDLEDENDAWYIIMTCIPDHPESARIYHLCKERFGKQQLVNVADKPDLCDFYFGANLEIGDRLQILISTNGLSPRFGALVRDEIRNLFTQMGDLALEDAVVKLGELRRGIRLLAPDDKDVKYRMDWARRCTDLFGIQHCHNIDVKRLLDLFKVMFQEQNCSLQFPPRERLLSEYCSS
244.09

I'd like to know its PI(4, 5)P2. The molecule in question is PKR1: yeast GST-HisX6 fusion protein on proteome chip (protein, UniProt Q03880 1-122, looked up, GST-His6 tag, yeast GST-HisX6 fusion protein on proteome chip) V-type ATPase assembly factor …: MANFFVRLWESVFEPGTSPQLIIATHVSFVALLLTLIWLIYATNGNIHFYALFCISLLLWITVIWFINELSHVKLKDNDELDKDANKKDDSAIKEDSEDKQESGKSTSTARRTQAQSRSRKA
87.75

I'd like to know its PI(4, 5)P2. The molecule in question is APA2: yeast GST-HisX6 fusion protein on proteome chip (protein, UniProt P22108 1-325, looked up, GST-His6 fusion tag, yeast GST-HisX6 fusion protein on proteome chip) Diadenosine …: MIEENLKQKIHDKFVAAKKNGHLKVTHAESKKLKDPQTTTQYWVTFAPSLALKPDANKNSDSKAEDPFANPDEELVVTEDLNGDGEYKLLLNKFPVVPEHSLLVTSEFKDQRSALTPSDLMTAYNVLCSLQGDKDDDVTCERYLVFYNCGPHSGSSQDHKHLQIMQMPEKFIPFQDVLCNGKDHFLPTFNAEPLQDDKVSFAHFVLPLPESSDQVDEDLLAMCYVSLMQRALTFFQDWTNESPELTKSYNVLLTKKWICVVPRSHAKSGPPLMLNINSTGYCGMILVKDREKLENLTEDPHLVDKSLLQCGFPNTAGQKPTEYHY
34.84
